Test system: RS4-11
Experiment: Antiproliferative activity against human RS4;11 cells harboring MLL-AF4 assessed as cell growth inhibition incubated for 7 days by MTS assay
Format: functional, cell-based
Conditions: RS4-11, 168 h
ENDPOINT: IC50
# number then unit; no other words

Lab note: measured IC50 of CCN(C(=O)c1cc(F)ccc1Nc1cncnc1N1CCN(CC2CN(c3ccc(S(=O)(=O)C4CN(C(=O)/C=C/CN(C)C)C4)cc3)C2)C(C)C1)C(C)C (stereo unspecified) was 272 nM

----------
Molecular target: Menin/Histone-lysine N-methyltransferase MLL (Homo sapiens)
Sequence (O00255 whole entry): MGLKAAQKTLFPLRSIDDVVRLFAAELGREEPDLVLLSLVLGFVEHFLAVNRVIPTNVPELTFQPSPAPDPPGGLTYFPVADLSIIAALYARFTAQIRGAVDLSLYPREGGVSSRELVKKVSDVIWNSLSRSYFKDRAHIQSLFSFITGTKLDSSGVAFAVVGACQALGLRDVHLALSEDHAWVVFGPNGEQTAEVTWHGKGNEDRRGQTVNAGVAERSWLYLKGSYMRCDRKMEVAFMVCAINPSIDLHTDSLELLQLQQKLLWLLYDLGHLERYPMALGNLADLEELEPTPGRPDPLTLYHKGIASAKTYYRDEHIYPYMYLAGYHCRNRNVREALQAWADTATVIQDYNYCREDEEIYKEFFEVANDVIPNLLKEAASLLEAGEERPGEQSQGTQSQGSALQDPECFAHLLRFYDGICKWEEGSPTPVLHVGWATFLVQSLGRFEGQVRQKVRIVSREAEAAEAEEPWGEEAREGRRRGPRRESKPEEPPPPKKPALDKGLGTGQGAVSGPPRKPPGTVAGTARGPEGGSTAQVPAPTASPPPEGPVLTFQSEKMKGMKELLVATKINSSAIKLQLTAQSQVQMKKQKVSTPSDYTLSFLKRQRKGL
Sequence (Q03164 1-2718 partner limits assumed): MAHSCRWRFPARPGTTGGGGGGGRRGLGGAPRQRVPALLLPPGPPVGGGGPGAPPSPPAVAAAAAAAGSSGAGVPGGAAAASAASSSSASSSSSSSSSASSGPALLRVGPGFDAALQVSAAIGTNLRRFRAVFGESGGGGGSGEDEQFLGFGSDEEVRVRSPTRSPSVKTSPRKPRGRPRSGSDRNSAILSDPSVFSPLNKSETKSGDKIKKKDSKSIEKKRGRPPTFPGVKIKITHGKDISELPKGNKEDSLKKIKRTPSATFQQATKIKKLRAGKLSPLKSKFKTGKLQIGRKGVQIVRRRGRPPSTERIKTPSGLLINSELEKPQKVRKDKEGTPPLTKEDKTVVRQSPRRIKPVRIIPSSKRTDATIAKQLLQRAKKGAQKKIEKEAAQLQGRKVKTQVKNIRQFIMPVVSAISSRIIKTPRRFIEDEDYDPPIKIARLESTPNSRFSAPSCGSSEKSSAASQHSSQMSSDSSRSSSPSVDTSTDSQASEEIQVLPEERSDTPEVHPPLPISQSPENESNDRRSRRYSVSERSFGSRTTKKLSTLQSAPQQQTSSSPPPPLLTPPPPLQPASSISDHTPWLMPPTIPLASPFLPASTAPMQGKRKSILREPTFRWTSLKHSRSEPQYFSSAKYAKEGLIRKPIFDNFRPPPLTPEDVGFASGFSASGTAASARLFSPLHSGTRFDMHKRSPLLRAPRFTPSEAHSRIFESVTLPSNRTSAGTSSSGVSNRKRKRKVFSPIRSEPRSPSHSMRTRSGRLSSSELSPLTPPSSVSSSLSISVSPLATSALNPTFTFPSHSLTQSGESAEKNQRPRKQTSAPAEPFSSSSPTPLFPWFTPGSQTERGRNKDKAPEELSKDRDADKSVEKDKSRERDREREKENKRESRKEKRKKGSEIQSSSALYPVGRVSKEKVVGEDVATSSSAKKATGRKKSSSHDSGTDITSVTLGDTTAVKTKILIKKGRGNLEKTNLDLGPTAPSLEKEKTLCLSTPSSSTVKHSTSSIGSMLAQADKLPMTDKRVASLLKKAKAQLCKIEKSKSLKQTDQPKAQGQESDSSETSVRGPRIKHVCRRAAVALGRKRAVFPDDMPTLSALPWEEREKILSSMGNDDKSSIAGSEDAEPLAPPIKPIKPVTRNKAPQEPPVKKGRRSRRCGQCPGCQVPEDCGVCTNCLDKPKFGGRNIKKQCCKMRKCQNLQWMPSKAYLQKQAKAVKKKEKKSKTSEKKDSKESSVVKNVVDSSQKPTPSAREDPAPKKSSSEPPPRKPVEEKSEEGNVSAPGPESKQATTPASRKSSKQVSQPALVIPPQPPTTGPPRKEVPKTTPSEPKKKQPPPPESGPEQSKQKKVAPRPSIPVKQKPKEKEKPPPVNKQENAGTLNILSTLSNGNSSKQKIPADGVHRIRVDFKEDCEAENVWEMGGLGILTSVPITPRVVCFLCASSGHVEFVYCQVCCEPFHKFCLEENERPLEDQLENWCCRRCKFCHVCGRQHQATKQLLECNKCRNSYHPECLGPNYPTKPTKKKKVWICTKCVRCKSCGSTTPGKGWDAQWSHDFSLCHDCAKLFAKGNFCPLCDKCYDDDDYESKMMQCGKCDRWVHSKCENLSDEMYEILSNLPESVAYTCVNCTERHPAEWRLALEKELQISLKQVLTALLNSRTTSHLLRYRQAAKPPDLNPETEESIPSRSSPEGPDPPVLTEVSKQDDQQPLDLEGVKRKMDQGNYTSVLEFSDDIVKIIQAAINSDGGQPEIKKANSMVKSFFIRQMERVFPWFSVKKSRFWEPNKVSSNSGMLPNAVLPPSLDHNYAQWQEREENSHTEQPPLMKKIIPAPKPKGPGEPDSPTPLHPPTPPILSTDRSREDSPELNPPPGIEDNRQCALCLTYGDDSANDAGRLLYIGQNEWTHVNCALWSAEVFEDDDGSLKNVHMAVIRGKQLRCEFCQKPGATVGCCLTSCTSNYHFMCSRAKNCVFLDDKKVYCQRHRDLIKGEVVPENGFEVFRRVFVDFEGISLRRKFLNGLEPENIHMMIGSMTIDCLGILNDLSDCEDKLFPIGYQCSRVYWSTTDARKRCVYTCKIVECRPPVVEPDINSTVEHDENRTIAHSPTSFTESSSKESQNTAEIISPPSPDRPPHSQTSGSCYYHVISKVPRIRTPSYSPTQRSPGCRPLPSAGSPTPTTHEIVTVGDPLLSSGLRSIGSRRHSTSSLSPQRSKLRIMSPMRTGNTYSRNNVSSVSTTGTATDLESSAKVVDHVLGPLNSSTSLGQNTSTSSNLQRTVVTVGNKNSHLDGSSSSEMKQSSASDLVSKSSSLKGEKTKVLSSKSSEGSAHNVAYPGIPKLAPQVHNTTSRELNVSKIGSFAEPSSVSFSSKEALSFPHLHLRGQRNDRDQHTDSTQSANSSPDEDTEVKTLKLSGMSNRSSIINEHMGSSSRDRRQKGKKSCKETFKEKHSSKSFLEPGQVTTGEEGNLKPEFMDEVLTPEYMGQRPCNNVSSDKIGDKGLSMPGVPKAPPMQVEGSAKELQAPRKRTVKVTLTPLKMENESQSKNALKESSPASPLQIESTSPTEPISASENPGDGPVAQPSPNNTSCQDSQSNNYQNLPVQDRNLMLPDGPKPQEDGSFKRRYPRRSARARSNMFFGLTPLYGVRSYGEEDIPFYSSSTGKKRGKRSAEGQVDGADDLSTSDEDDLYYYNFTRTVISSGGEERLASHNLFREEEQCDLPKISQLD
Sequence (Q03164 2719-3969 partner limits assumed): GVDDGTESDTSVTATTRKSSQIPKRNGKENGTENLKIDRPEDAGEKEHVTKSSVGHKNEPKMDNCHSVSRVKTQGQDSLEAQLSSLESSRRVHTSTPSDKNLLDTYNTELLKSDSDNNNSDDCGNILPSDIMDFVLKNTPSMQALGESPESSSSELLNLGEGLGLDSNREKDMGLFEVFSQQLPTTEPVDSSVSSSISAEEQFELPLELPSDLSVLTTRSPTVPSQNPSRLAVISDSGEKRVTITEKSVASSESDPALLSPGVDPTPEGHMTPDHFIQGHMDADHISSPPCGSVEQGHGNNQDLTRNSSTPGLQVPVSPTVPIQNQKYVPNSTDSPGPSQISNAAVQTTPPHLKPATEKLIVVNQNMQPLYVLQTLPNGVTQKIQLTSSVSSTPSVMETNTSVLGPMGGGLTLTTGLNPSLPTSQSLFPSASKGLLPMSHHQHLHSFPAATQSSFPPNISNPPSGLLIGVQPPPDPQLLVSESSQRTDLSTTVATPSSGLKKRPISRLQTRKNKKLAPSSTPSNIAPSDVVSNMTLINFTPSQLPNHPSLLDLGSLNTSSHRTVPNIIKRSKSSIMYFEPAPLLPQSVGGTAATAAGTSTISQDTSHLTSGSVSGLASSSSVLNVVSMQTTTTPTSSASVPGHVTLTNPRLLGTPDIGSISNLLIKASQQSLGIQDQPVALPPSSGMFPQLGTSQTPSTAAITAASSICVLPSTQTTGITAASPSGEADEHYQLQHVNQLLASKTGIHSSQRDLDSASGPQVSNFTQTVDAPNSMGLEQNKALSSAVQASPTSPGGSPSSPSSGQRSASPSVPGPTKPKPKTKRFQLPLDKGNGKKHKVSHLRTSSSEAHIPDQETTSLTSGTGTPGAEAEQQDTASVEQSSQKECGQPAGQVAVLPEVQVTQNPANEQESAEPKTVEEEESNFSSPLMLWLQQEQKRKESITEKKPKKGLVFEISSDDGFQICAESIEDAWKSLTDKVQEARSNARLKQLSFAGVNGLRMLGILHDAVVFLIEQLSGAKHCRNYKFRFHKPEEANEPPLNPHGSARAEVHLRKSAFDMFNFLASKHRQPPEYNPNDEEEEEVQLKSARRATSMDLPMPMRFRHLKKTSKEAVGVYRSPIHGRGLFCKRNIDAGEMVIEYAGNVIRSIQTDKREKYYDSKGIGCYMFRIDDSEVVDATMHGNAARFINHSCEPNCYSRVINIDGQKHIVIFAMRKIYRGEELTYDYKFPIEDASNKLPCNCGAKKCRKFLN
Test: Inhibition of menin (unknown origin)/N-terminal FITC-labeled MLL1 peptide (unknown origin) interaction incubated for 30 min by fluorescence polarization assay
ENDPOINT: pIC50
Lab note — pIC50 values are minus log10 of concentrations in M.

As a guide, the following entries are already answered.
Lab note: measured pIC50 of CCN(C(=O)c1cc(F)ccc1Nc1cncnc1N1CCN(CC2CN(c3ccc(F)cc3)C2)CC1)C(C)C was 6.56

Lab note: measured pIC50 of CCN(C(=O)c1cc(F)ccc1Nc1cncnc1N1CCN(CC2CN(c3ccc(S(=O)(=O)C4CN(C(=O)/C=C/CN(C)C)C4)cc3)C2)C(C)C1)C(C)C (centres undefined) was 7.74

Lab note: measured pIC50 of CCN(C(=O)c1cc(F)ccc1Oc1cncnc1N1CC2(CCN(C[C@H]3CC[C@H](NS(=O)(=O)CC)CC3)CC2)C1)C(C)C was 7.81

***
Lab note: measured pIC50 of C=CC(=O)NC1CN(S(=O)(=O)c2ccc(N3CC(CN4CCN(c5ncncc5Nc5ccc(F)cc5C(=O)N(CC)C(C)C)CC4)C3)cc2)C1 was 7.64

----------
Assay: Cmax in female ICR mouse at 5 mg/kg, ip by LC-MS/MS analysis
Format: ADME, organism-based
Conditions: in vivo
ENDPOINT: Cmax (ng/mL)
Unit ng/mL implied. Number only.

Lab note: measured Cmax of CCN(C(=O)c1cc(F)ccc1Nc1cncnc1N1CCN(CC2CN(c3ccc(S(=O)(=O)C4CN(C(=O)/C=C/CN(C)C)C4)cc3)C2)C(C)C1)C(C)C (stereo unspecified) was 980

----------
Experiment: Half life in female ICR mouse at 5 mg/kg, ip by LC-MS/MS analysis
Format: ADME, organism-based
Conditions: in vivo
ENDPOINT: half-life (h)
Unit h implied. Number only.

Lab note: measured half-life of CCN(C(=O)c1cc(F)ccc1Nc1cncnc1N1CCN(CC2CN(c3ccc(S(=O)(=O)C4CN(C(=O)/C=C/CN(C)C)C4)cc3)C2)C(C)C1)C(C)C (stereo unspecified) was 1.59

----------
Tested on: REH
Assay: Antiproliferative activity against human menin-insensitive REH cells assessed as inhibition of cell growth incubated for 7 days by MTS assay
Format: functional, cell-based
Conditions: 168 h
ENDPOINT: IC50

As a guide, the following entries are already answered.
Lab note: measured IC50 of CCN(C(=O)c1cc(F)ccc1Nc1cncnc1N1CCN(CC2CN(c3ccc(S(=O)(=O)N4CC(NC(=O)/C=C/CN(C)C)C4)cc3)C2)CC1)C(C)C was > 20 µM

Lab note: measured IC50 of CCC(=O)Nc1ccc(N2CC(CN3CCN(c4ncncc4Nc4ccc(F)cc4C(=O)N(C(C)C)C(C)C)CC3)C2)cc1 was 8.26 µM

Lab note: measured IC50 of CCN(C(=O)c1cc(F)ccc1Nc1cncnc1N1CCN(C(C)C2CN(c3ccc(S(=O)(=O)C4CN(C(=O)/C=C/CN(C)C)C4)cc3)C2)CC1)C(C)C (stereo not given) was 7.9 µM

Lab note: measured IC50 of CCN(C(=O)c1cc(F)ccc1Nc1cncnc1N1C[C@@H](C)N(CC2CN(c3ccc(S(=O)(=O)C4CN(C(=O)/C=C/CN(C)C)C4)cc3)C2)C[C@@H]1C)C(C)C was 18 µM

***
Lab note: measured IC50 of CCC(=O)Nc1cccc(N2CC(CN3CCN(c4ncncc4Nc4ccc(F)cc4C(=O)N(C(C)C)C(C)C)CC3)C2)c1 was > 20 µM

----------
Experiment: Tmax in female ICR mouse at 5 mg/kg, ip by LC-MS/MS analysis
Assay type: ADME, organism-based
Conditions: in vivo
ENDPOINT: Tmax (min)
Unit min implied. Number only.

Lab note: measured Tmax of CCN(C(=O)c1cc(F)ccc1Nc1cncnc1N1CCN(CC2CN(c3ccc(S(=O)(=O)C4CN(C(=O)/C=C/CN(C)C)C4)cc3)C2)C(C)C1)C(C)C (stereo unspecified) was 15

----------
System: REH
Experiment: Antiproliferative activity against human menin-insensitive REH cells assessed as inhibition of cell growth incubated for 7 days by MTS assay
Type: functional, cell-based
Details: 168 h
pIC50: −log10 of the molar value.
Listing of entries alongside the reported pIC50.

Lab note: measured pIC50 of CCC(=O)N[C@H]1CCN(S(=O)(=O)c2ccc(N3CC(CN4CCN(c5ncncc5Nc5ccc(F)cc5C(=O)N(CC)C(C)C)CC4)C3)cc2)C1 was < 4.70

Lab note: measured pIC50 of CCC(=O)NC1CN(S(=O)(=O)c2ccc(N3CC(CN4CCN(c5ncncc5Nc5ccc(F)cc5C(=O)N(CC)C(C)C)CC4)C3)cc2)C1 was < 4.70

----------
Listing of entries alongside the reported IC50 at 7 days.
Assay: Cytotoxicity against human PBMC cells assessed as cell viability incubated for 7 days by MTS assay
Type: toxicity, cell-based

Lab note: measured IC50 at 7 days of CCN(C(=O)c1cc(F)ccc1Oc1cncnc1N1CC2(CCN(C[C@H]3CC[C@H](NS(=O)(=O)CC)CC3)CC2)C1)C(C)C was > 3 µM

***
Lab note: measured IC50 at 7 days of CCN(C(=O)c1cc(F)ccc1Nc1cncnc1N1CCN(CC2CN(c3ccc(S(=O)(=O)C4CN(C(=O)/C=C/CN(C)C)C4)cc3)C2)C(C)C1)C(C)C (configuration not stated) was > 3 µM

----------
Target: Menin/Histone-lysine N-methyltransferase MLL (Homo sapiens)
Assay: Inhibition of menin (unknown origin)/N-terminal FITC-labeled MLL1 peptide (unknown origin) interaction incubated for 30 min by fluorescence polarization assay
Define the label as met when IC50 is strictly less than 50 nM and as not met in all remaining cases.

Look over these answered cases.
Is it true that IC50 reported for C=CC(=O)Nc1cccc(N2CC(CN3CCN(c4ncncc4Nc4ccc(F)cc4C(=O)N(C(C)C)C(C)C)CC3)C2)c1 is less than 50 nM?
not met

Is it true that IC50 reported for CCN(C(=O)c1cc(F)ccc1Oc1cncnc1N1CCN(CC2CN(c3ccc(S(=O)(=O)C4CN(C(=O)/C=C/CN(C)C)C4)cc3)C2)CC1)C(C)C is less than 50 nM?
met

***
Is it true that IC50 reported for CCN(C(=O)c1cc(F)ccc1Nc1cncnc1N1CCN(CC2CN(c3ccc(S(N)(=O)=O)cc3)C2)CC1)C(C)C is less than 50 nM?
met

Is it true that IC50 reported for CCN(C(=O)c1cc(F)ccc1Nc1cncnc1N1CCN(CC2CN(c3ccc(S(=O)(=O)N4CC(NC(=O)/C=C/CN(C)C)C4)cc3)C2)CC1)C(C)C is less than 50 nM?
met

Is it true that IC50 reported for CCN(C(=O)c1cc(F)ccc1Nc1cncnc1N1CCN(CC2CN(c3ccc(NS(C)(=O)=O)cc3)C2)CC1)C(C)C is less than 50 nM?
met

Is it true that IC50 reported for CCN(C(=O)c1cc(F)ccc1Nc1cncnc1N1CCN(CC2CN(c3ccc(S(=O)(=O)C4CN(C(=O)/C=C/CN5CCCC5)C4)cc3)C2)CC1)C(C)C is less than 50 nM?
met

Is it true that IC50 reported for CCN(C(=O)c1cc(F)ccc1Nc1cncnc1N1CCN(CC2CN(c3ccc(C(F)(F)F)cc3)C2)CC1)C(C)C is less than 50 nM?
not met

Is it true that IC50 reported for CCC(=O)N1CC(S(=O)(=O)c2ccc(N3CC(CN4CCN(c5ncncc5Nc5ccc(F)cc5C(=O)N(C(C)C)C(C)C)CC4)C3)cc2)C1 is less than 50 nM?
met

Is it true that IC50 reported for CCC(=O)NC1CN(S(=O)(=O)c2ccc(N3CC(CN4CCN(c5ncncc5Nc5ccc(F)cc5C(=O)N(CC)C(C)C)CC4)C3)cc2)C1 is less than 50 nM?
met

----------
Test: Solubility of compound in water by HPLC analysis
Type: physicochemical
ENDPOINT: solubility (µg/mL)
Unit µg/mL implied. Number only.

Lab note: measured solubility of CCN(C(=O)c1cc(F)ccc1Nc1cncnc1N1CCN(CC2CN(c3ccc(S(=O)(=O)C4CN(C(=O)/C=C/CN(C)C)C4)cc3)C2)C(C)C1)C(C)C (stereo unspecified) was 1230

----------
Test: Observed MRTinfinity in female ICR mouse at 5 mg/kg, ip by LC-MS/MS analysis
Type: ADME, organism-based
Details: in vivo
ENDPOINT: MRT inf (h)
Unit h implied. Number only.

Lab note: measured MRT inf of CCN(C(=O)c1cc(F)ccc1Nc1cncnc1N1CCN(CC2CN(c3ccc(S(=O)(=O)C4CN(C(=O)/C=C/CN(C)C)C4)cc3)C2)C(C)C1)C(C)C (stereo unspecified) was 1.85

The values you see were collected from ChEMBL document CHEMBL6092156.
